experiment: Inhibition of wild type HIV reverse transcriptase in presence of poly(rA) 300 template, (dT) 16 primer; design: species or system Human immunodeficiency virus
pIC50: −log10 of the molar value.
measured-quantity: pIC50

CCc1nn(CCO)c(CC)c1Oc1cccc(C(N)=O)c1 :: < 4.00
CCc1nn(CCO)c(NC(C)=O)c1Cc1cc(Cl)cc(Cl)c1 :: < 4.00
CCc1nn(CCO)c(CC)c1Oc1ccc(Cl)cc1Cl :: < 4.05

Prompt line: // lookup pIC50 for CCc1nn(CCO)c(CC)c1Oc1ccc(Cl)c(Cl)c1
Response line: 4.51

Prompt line: Would you mind telling me what pIC50 value was observed for Cc1c(Cc2cc(Cl)cc(Cl)c2)c(C(=O)O)nn1CCO ?
Response line: < 4.00

Prompt line: Entry Cc1c(Cc2cc(Cl)cc(Cl)c2)c(-c2ccccc2)nn1CCO : reported pIC50 = ?
Response line: < 5.00

* * *

assay: Inhibition of wild type HIV reverse transcriptase in presence of poly(rA) 300 template, (dT) 16 primer; set-up: species or system Human immunodeficiency virus
pIC50: −log10 of the molar value.
measured-quantity: pIC50

Prompt line: Need pIC50, item CCc1nn(CCO)c(NC(=O)c2cccnc2)c1Cc1cc(Cl)cc(Cl)c1
Response line: < 4.00

Prompt line: Using the record for CCc1nn(CCO)c(CC)c1Oc1ccc(C#N)c(F)c1F , report its pIC50.
Response line: < 4.00

Prompt line: // lookup pIC50 for CCc1nn(CCO)c(CC)c1Oc1ccc(F)c(F)c1
Response line: < 4.30

Prompt line: For the compound shown here, CCc1nn(CCO)c(CC)c1Oc1cc(C)c[n+]([O-])c1 , give the reported pIC50.
Response line: < 4.00

* * *

assay: Inhibition of wild type HIV reverse transcriptase in presence of poly(rA) 300 template, (dT) 16 primer; design: species or system Human immunodeficiency virus
pIC50: −log10 of the molar value.
measured-quantity: pIC50

CCc1nn(CCO)c(N)c1Cc1cc(Cl)cc(Cl)c1 :: < 4.30
CCc1nn(CCO)c(CC)c1Oc1ccc(F)cc1 :: < 4.00
CCc1nn(CCO)c(CC)c1Oc1ccc(C#N)cc1 :: < 4.30
Cc1nn(CCO)c(-c2ccccc2)c1Cc1cc(Cl)cc(Cl)c1 :: < 5.00
CCc1nn(CCO)c(CC)c1Oc1ccc(C#N)c(F)c1 :: < 4.00

Prompt line: Data request, read-out pIC50, for CCc1nn(CCO)c(CC)c1Oc1cc(C)c(C#N)c(C)c1
Response line: < 4.00

Prompt line: Fill in: pIC50 of CCc1nn(CCO)c(CC)c1Oc1ccccn1 is ___
Response line: < 4.00

Reference for the values: ChEMBL document CHEMBL1156030
